- Method summary: Observed AUC (0 to infinity) in Sprague-Dawley rat at 10 mg/kg, po
- Assay type: ADME, organism-based
- Study conditions: in vivo
Observation type: AUC(0-inf) (ng·h/mL)
Kindly answer with a numeric value in ng·h/mL, unit omitted.

Problem: Identify measured AUC(0-inf) corresponding to C=C[C@]1(C)C[C@@H](OC(=O)CSc2nc3cc[n+](Cc4ccc(C)cc4)cc3[nH]2)[C@]2(C)[C@H](C)CC[C@]3(CCC(=O)[C@H]32)[C@@H](C)[C@@H]1O.[Br-]
Result: 15800

---

- Method summary: AUC (0 to 24 hrs) in Sprague-Dawley rat at 5 mg/kg, iv
- Format: ADME, organism-based
- Study conditions: in vivo
Observation type: AUC(0-t) (ng·h/mL)
Kindly answer with a numeric value in ng·h/mL, unit omitted.

Problem: Identify measured AUC(0-t) corresponding to C=C[C@]1(C)C[C@@H](OC(=O)CSc2nc3cc[n+](Cc4ccc(C)cc4)cc3[nH]2)[C@]2(C)[C@H](C)CC[C@]3(CCC(=O)[C@H]32)[C@@H](C)[C@@H]1O.[Br-]
Result: 16200

---

- Method summary: AUC (0 to 24 hrs) in Sprague-Dawley rat at 10 mg/kg, po
- Type: ADME, organism-based
- Study conditions: in vivo
Observation type: AUC(0-t)
Field note: include the unit after the figure.

Problem: Identify measured AUC(0-t) corresponding to C=C[C@]1(C)C[C@@H](OC(=O)CSc2nc3cc[n+](Cc4ccc(C)cc4)cc3[nH]2)[C@]2(C)[C@H](C)CC[C@]3(CCC(=O)[C@H]32)[C@@H](C)[C@@H]1O.[Br-]
Result: 14600 ng·h/mL

---

- Test system: Staphylococcus aureus
- Method summary: Antibacterial activity against methicillin-resistant Staphylococcus aureus 596 assessed as inhibition of bacterial growth incubated for 24 hrs by broth microdilution method
- Assay type: functional
For each record, write down the corresponding MIC.
Kindly answer with a numeric value in µg/mL, unit omitted.

Problem: Enter recorded MIC with Staphylococcus aureus for C=C[C@]1(C)C[C@@H](OC(=O)CSc2nc3cc[n+](Cc4ccc(C)cc4)cc3[nH]2)[C@]2(C)[C@H](C)CC[C@]3(CCC(=O)[C@H]32)[C@@H](C)[C@@H]1O.[Br-] here.
Result: 2

Problem: Enter recorded MIC with Staphylococcus aureus for C=C[C@]1(C)C[C@@H](OC(=O)CS[C@@H]2C[C@H]3CC[C@@H](C2)N3C)[C@]2(C)[C@H](C)CC[C@]3(CCC(=O)[C@H]32)[C@@H](C)[C@@H]1O here.
Result: 32

Problem: Enter recorded MIC with Staphylococcus aureus for C=C[C@]1(C)C[C@@H](OC(=O)CSc2nc3cc[n+](Cc4ccc(C#N)cc4)cc3[nH]2)[C@]2(C)[C@H](C)CC[C@]3(CCC(=O)[C@H]32)[C@@H](C)[C@@H]1O.[Br-] here.
Result: 8

Problem: Enter recorded MIC with Staphylococcus aureus for C=C[C@]1(C)C[C@@H](OC(=O)CSc2nc3cc[n+](Cc4ccc(C#N)cc4)cc3s2)[C@]2(C)[C@H](C)CC[C@]3(CCC(=O)[C@H]32)[C@@H](C)[C@@H]1O.[Br-] here.
Result: 8

Problem: Enter recorded MIC with Staphylococcus aureus for C=C[C@]1(C)C[C@@H](OC(=O)CSc2nc3cc[n+](Cc4ccc(C)cc4)cc3s2)[C@]2(C)[C@H](C)CC[C@]3(CCC(=O)[C@H]32)[C@@H](C)[C@@H]1O.[Br-] here.
Result: 8
